Collected Plant response rating, Sandbur values appear next to each entry.
- Tested on: sandbur (southern sandbur, Cenchrus echinatus)
- assayInfo: Test D pre-/postemergence plant response
- Assay type: in vivo
- experimentalParameters: Postemergence; 62 g ai/ha; scale 0 to 100 (0 no effect, 100 complete control)
# output: bare number, no unit

Example results:
Given item Cc1c(F)cccc1-n1c(-c2ccccc2)ncc(C(=O)C2=C(O)CCCC2=O)c1=O , the value recorded as its Plant response rating, Sandbur is 20

Plant response rating, Sandbur in this record for CCCn1c(-c2ccccc2)ncc(C(=O)C2=C(O)C3CCC(C3)C2=O)c1=O (stereo not shown) : 75

Entry under test: COCCCn1c(-c2cc(F)cc(F)c2)ncc(C(=O)C2=C(O)C3CCC(C3)C2=O)c1=O (stereo not shown) . Its Plant response rating, Sandbur was 70

# context switch: different molecule, same Plant response rating, Sandbur
Entry under test: O=C1CCCC(O)=C1C(=O)c1cnc(-c2cccs2)n(-c2ccccc2)c1=O . Its Plant response rating, Sandbur was 35

---

- Test system: pigweed (Amaranthus retroflexus)
- assayInfo: Test A pre-/postemergence plant response
- Format: in vivo
- experimentalParameters: Postemergence, 125 g ai/ha; 0 to 100 scale where 0 is no effect and 100 is complete control
Reported values of Plant response rating, Pigweed for individual entries
No unit in the answer, please; the number alone is enough.

Answered examples (2):
Record COCCCn1c(-c2cccc(Cl)c2)ncc(C(=O)C2=C(O)CCCC2=O)c1=O [Compound 143] , field Plant response rating, Pigweed: 70

compound Cc1ccc(Cl)cc1-n1c(-c2cccc(Cl)c2)ncc(C(=O)C2=C(O)CCCC2=O)c1=O [Compound 148] , Plant response rating, Pigweed observed: 90

---
Lookup result for O=C1CCCC(O)=C1C(=O)c1cnc(C2CCCC2)n(-c2ccccc2)c1=O [Compound 92] ; measured Plant response rating, Pigweed: 100

---

- Test system: wild oat (Avena fatua)
- assayInfo: Test B pre-/postemergence plant response
- Format: in vivo
- experimentalParameters: 62 g ai/ha, postemergence; 0 is no effect, 100 is complete control; 13 to 15 days
Assign true whenever Oat, Wild plant response rating (0 to 100 scale) does not fall below 20; assign false whenever it does.

Check this molecule for Oat, Wild plant response rating (0 to 100 scale) at or above 20: CCCn1c(-c2cccc(OC)c2)ncc(C(=O)C2=C(O)CCCC2=O)c1=O
false

Further cases:
Would you say O=C1CCCC(O)=C1C(=O)c1cnc(-c2cccs2)n(CC2CCCO2)c1=O (centres unmarked) shows Oat, Wild plant response rating (0 to 100 scale) at minimum 20?
false

Check the entry O=C1CCCC(O)=C1C(=O)c1cnc(-c2ccccc2)n(C2CC2)c1=O : does Oat, Wild plant response rating (0 to 100 scale) equal or exceed 20?
false

Hi team, for CCn1c(-c2cc(F)cc(F)c2)ncc(C(=O)C2=C(O)CCCC2=O)c1=O , is the recorded Oat, Wild plant response rating (0 to 100 scale) at or above 20?
true

---

- Test system: green foxtail (Setaria viridis)
- assayInfo: Test B pre-/postemergence plant response
- Assay type: in vivo
- experimentalParameters: Preemergence, 125 g ai/ha; 0 to 100 scale
Reported Foxtail, Green plant response rating values for a set of compounds

# Foxtail, Green plant response rating (compound: Cc1ccc(-n2c(-c3cccc(Cl)c3)ncc(C(=O)C3=C(O)CCCC3=O)c2=O)cc1 [Compound 39] ) is 75

Others:
Recorded result, CCCn1c(-c2ccccc2)ncc(C(=O)C2=C(O)CCCC2=O)c1=O [Compound 50] , Foxtail, Green plant response rating: 95

// sample O=C1CCCC(O)=C1C(=O)c1cnc(-c2ccccc2)n(-c2ccccc2Br)c1=O [Compound 37] , its Foxtail, Green plant response rating was 0

Sample O=C1CCCC(O)=C1C(=O)c1cnc(-c2ccccc2)n(-c2ccc(F)cc2)c1=O [Compound 24] ; Foxtail, Green plant response rating observed: 100

GET /value?item= CCn1c(-c2ccccc2)ncc(C(=O)C2=C(O)CCCC2=O)c1=O [Compound 49] &field=Foxtail, Green plant response rating returns 5
